Molecular target: UniProt:P07333
Experiment: KINOMEscan competition binding assay for CSF1R
Parameters: DNA tag for qPCR (not a peptide); host or cells: E. coli/T7 phage or HEK-293
Conditions: @ 0.1 uM; read-out: CSF1R kinase binding activity, Percent (%) inhibition
So basically: inhibition at 0.1 µM at 90% or higher? That is Criterion met. Lower than 90%? That is Criterion not met.

> print(dat)
                                   compound    assay.target   class.assignment
1  CCCCn1cc(OCC(F)(F)F)c(C(=O)Nc2ccc(Oc3ccnc4cc(OC)c(OC)cc34)cn2)n1  UniProt:P07333      Criterion met
2  COc1cc2nccc(Oc3ccc(NC(=O)c4nn(CC5CNC5)cc4OCC(F)(F)F)nc3)c2cc1OC  UniProt:P07333      Criterion met
3  COc1cc2nccc(Oc3ccc(NC(=O)c4nn(CC(C)O)cc4OCC(F)(F)F)cn3)c2cc1OC (stereo not drawn)  UniProt:P07333  Criterion not met
4  COc1cc2nccc(Oc3ccc(NC(=O)c4nn(C5CCCC5)cc4OCC(F)(F)F)nc3)c2cc1OC  UniProt:P07333      Criterion met
5  COc1cc2nccc(Oc3ccc(NC(=O)c4nn(CC5CCN(C)C5)cc4OCC(F)(F)F)nc3)c2cc1OC (stereo not drawn)  UniProt:P07333      Criterion met

Query block: Quick check: does COc1cc2nccc(Oc3ccc(NC(=O)c4nn(C5CCCC5)cc4OCC(F)(F)F)cc3C)c2cc1OC have inhibition at 0.1 µM greater than or equal to 90%?
Result block: Criterion met

Query block: Dear colleague, could you confirm whether CCCn1cc(OCC(F)(F)F)c(C(=O)Nc2ccc(Oc3ccnc4cc(OC)c(OC)cc34)cn2)n1 has inhibition at 0.1 µM at or above 90%?
Result block: Criterion met

Query block: Is inhibition at 0.1 µM for COc1cc2nccc(Oc3ccc(NC(=O)c4nn(CCOC5CC5)cc4OCC(F)(F)F)c(F)c3)c2cc1OC at or above 90%?
Result block: Criterion met

Query block: Hello, I need to know if COc1cc2nccc(Oc3ccc(NC(=O)c4nn(CC(C)O)cc4OCC(F)(F)F)c(F)c3)c2cc1OC (stereo not drawn) has measured inhibition at 0.1 µM not below 90%. Thanks!
Result block: Criterion met

Query block: Can CNCCn1cc(OCC(F)(F)F)c(C(=O)Nc2ccc(Oc3ccnc4cc(OC)c(OC)cc34)cc2F)n1 be said to have inhibition at 0.1 µM at or above 90%?
Result block: Criterion not met

Query block: Dear colleague, could you confirm whether COc1cc2nccc(Oc3ccc(NC(=O)c4nn(C5CC5)cc4OCC(F)(F)F)nn3)c2cc1OC has inhibition at 0.1 µM at or above 90%?
Result block: Criterion met

Query block: Hi team, for COc1cc2nccc(Oc3ccc(NC(=O)c4nn(CCO)cc4OCC(F)(F)F)cc3F)c2cc1OC , is the recorded inhibition at 0.1 µM at or above 90%?
Result block: Criterion not met

Query block: In plain terms: is recorded inhibition at 0.1 µM at least 90% for COc1cc2nccc(Oc3ccc(NC(=O)c4nn(C5CCOC5)cc4OCC(F)(F)F)nc3)c2cc1OC (stereo not drawn) ?
Result block: Criterion met

Query block: API: above_or_equal(metric=inhibition at 0.1 µM, cutoff=90%) for item COc1cc2nccc(Oc3ccc(NC(=O)c4nn(CC(C)C)cc4OCC(F)(F)F)cc3)c2cc1OC
Result block: Criterion not met

Query block: # check: inhibition at 0.1 µM of COc1cc2nccc(Oc3ccc(NC(=O)c4nn(CC5CCOC5)cc4OCC(F)(F)F)nc3)c2cc1OC (stereo not drawn) is greater than or equal to 90%
Result block: Criterion not met

Query block: Tell me whether inhibition at 0.1 µM is at least 90% here: COCCOc1cn(C2CC2)nc1C(=O)Nc1ccc(Oc2ccnc3cc(OC)c(OC)cc23)nn1
Result block: Criterion not met

Query block: Reported inhibition at 0.1 µM at or above 90%? COc1cc2nccc(Oc3ccc(NC(=O)c4nn(C5CC5)cc4OCC4CNC4)nc3)c2cc1OC
Result block: Criterion not met

Query block: // inclusive: inhibition at 0.1 µM at least 90%? input: COc1cc2nccc(Oc3ccc(NC(=O)c4nn(CCN)cc4OCC(F)(F)F)cn3)c2cc1OC
Result block: Criterion not met

Query block: Identify whether the reported inhibition at 0.1 µM of the following compound is 90% or greater: COc1cc2nccc(Oc3ccc(NC(=O)c4nn(CC(C)O)cc4OCC(F)F)nc3)c2cc1OC (stereo not drawn)
Result block: Criterion met

----------
Entries and their measured inhibition at 0.1 µM follow.
Target: CSF1R (Homo sapiens)
Sequence (P07333 20-972): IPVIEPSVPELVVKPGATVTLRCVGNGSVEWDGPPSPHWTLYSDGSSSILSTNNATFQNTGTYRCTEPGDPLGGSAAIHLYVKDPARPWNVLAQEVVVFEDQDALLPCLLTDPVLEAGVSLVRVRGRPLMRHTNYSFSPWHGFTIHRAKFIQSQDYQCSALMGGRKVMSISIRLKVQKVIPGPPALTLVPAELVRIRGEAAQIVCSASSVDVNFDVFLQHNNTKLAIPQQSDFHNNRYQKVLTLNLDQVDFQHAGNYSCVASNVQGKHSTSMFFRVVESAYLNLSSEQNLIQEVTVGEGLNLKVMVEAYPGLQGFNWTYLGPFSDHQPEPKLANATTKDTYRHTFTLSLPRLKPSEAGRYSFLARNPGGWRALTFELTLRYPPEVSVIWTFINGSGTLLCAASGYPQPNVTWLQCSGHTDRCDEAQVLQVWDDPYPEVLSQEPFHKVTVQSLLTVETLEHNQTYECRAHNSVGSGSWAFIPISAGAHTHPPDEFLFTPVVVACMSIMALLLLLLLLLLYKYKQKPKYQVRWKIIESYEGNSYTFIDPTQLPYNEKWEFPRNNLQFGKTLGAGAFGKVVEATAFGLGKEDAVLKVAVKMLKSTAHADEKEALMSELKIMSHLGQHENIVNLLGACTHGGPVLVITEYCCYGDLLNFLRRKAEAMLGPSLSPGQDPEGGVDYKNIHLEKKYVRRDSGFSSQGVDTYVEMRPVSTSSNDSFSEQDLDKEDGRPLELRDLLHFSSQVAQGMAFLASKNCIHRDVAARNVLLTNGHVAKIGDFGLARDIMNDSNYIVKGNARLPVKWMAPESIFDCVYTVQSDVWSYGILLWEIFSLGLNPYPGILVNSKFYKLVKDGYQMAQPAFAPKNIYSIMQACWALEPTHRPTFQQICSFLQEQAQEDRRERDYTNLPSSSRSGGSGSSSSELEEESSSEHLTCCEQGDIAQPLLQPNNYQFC
Assay: KINOMEscan competition binding assay for CSF1R
Parameters: DNA tag for qPCR (not a peptide); host or cells: E. coli/T7 phage or HEK-293
Details: @ 0.1 uM; read-out: CSF1R kinase binding activity, Range

Query block: # inhibition at 0.1 µM lookup, item COc1cc2nccc(Oc3ccc(NC(=O)c4nn(CCN)cc4OCC(F)(F)F)cc3)c2cc1OC [Compound 88]
Result block: < 50%

Query block: Field request: inhibition at 0.1 µM | item: COc1cc2nccc(Oc3ccc(NC(=O)c4nn(C5CCNC5)cc4OCC(F)(F)F)cc3C)c2cc1OC (stereo not shown) [Compound 81]
Result block: < 50%

Query block: So what's the measured inhibition at 0.1 µM for this one? COc1cc2nccc(Oc3ccc(NC(=O)c4nn(C5CCNC5)cc4OCC(F)(F)F)cn3)c2cc1OC (stereo not shown) [Compound 132]
Result block: < 50%

Query block: Looking for the measured inhibition at 0.1 µM of COc1cc2nccc(Oc3ccc(NC(=O)c4nn(C5CC5)cc4OCC(F)F)nc3)c2cc1OC [Compound 109] , can you help?
Result block: ≥ 80%

----------
Target: UniProt:P30530
Assay: Cellular Axl inhibition ELISA (p-Axl, Gas6-induced) using H1299 cells
Format: cell-based
Parameters: especially H1299 cell endogenously expresses Axl; endogenous in cells; host or cells: H1299
Conditions: read-out: Cellular Axl activity by H1299 Elisa (IC50)
Experimental Endpoint: IC50

> print(dat)
                                   compound  endpoint.result
1  COc1cc2nccc(Oc3ccc(NC(=O)c4nn(CC5COC5)cc4OCC(F)(F)F)cc3F)c2cc1OC         < 500 nM
2  CCCn1cc(OCC(F)(F)F)c(C(=O)Nc2ccc(Oc3ccnc4cc(OC)c(OC)cc34)cc2C)n1         < 500 nM
3  COc1cc2nccc(Oc3ccc(NC(=O)c4nn(C5CC5)cc4OCC4CNC4)nc3)c2cc1OC        ≥ 1000 nM
4  COc1cc2nccc(Oc3ccc(NC(=O)c4nn(C(C)C)c(C)c4OCC(F)(F)F)nc3)c2cc1OC         < 500 nM
5  COc1cc2nccc(Oc3ccc(NC(=O)c4nn(C5CC5)c(C(C)=O)c4OCC(F)(F)F)nc3)c2cc1OC         < 500 nM
6  COc1cc2nccc(Oc3ccc(NC(=O)c4nn(C)cc4OCC(F)(F)F)nc3)c2cc1OC         < 500 nM

Now for the compound whose IC50 we want.
Query block: Would you kindly share the measured IC50 for COc1cc2nccc(Oc3ccc(NC(=O)c4nn(C5CCN(C)C5)cc4OCC(F)(F)F)cc3C)c2cc1OC (stereo not shown) ?
Result block: ≥ 1000 nM

----------
Target: Axl (Homo sapiens)
Sequence (P30530 26-894): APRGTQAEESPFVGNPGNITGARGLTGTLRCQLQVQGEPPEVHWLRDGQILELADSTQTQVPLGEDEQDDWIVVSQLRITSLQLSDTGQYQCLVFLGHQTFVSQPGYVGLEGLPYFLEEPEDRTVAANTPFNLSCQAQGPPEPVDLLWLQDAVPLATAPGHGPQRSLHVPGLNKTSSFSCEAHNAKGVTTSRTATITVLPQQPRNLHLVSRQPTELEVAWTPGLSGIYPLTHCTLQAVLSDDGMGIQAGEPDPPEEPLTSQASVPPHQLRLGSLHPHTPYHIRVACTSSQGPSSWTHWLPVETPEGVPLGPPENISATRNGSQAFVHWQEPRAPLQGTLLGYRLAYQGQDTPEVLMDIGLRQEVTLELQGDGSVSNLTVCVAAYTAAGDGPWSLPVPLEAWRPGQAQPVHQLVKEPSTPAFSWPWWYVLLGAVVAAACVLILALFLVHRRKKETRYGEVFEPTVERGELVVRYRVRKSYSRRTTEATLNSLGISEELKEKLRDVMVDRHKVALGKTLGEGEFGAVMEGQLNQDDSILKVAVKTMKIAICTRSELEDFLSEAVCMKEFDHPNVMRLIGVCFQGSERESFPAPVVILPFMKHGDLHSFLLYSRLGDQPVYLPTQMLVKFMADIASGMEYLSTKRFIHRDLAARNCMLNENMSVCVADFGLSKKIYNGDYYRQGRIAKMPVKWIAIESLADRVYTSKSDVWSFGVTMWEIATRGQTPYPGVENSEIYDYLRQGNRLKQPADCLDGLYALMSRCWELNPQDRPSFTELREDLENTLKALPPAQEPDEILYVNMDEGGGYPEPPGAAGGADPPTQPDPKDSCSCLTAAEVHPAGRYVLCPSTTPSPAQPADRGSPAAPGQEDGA
Experiment: LanthaScreen Eu kinase binding assay for Axl
Settings: read-out: Axl kinase binding activity (Kd)
Protocol: LanthaScreen® Eu Kinase Binding assays were conducted at Life Technologies using the manufacturer's specifications for each kinase indicated. Briefly, the principle behind this assay is based upon the binding and displacement of an Alexa Fluor 647-labeled tracer to the kinase of interest. Binding of the tracer to the kinase is detected using an EU-labeled anti-tag antibody. Simultaneous binding of both the tracer and antibody to the kinase gives rise to a FRET-signal. […]
Experimental Endpoint: Kd

> print(dat)
                                   compound  endpoint.result
1  COc1cc2nccc(Oc3ccc(NC(=O)c4nn(CC5CCNC5)cc4OCC(F)(F)F)nc3)c2cc1OC (stereo not shown)         < 100 nM
2  COc1cc2nccc(Oc3ccc(NC(=O)c4nn(C5CCNC5)cc4OCC(F)(F)F)cn3)c2cc1OC (stereo not shown)         ≥ 500 nM
3  CCn1cc(OCC2CCC2)c(C(=O)Nc2ccc(Oc3ccnc4cc(OC)c(OC)cc34)cn2)n1         < 100 nM
4  COc1cc2nccc(Oc3ccc(NC(=O)c4nn(C5CCNC5)cc4OCC(F)(F)F)c(F)c3)c2cc1OC (stereo not shown)    100 to 500 nM
5  COc1cc2nccc(Oc3ccc(NC(=O)c4nn(CCCO)cc4OCC(F)(F)F)nc3)c2cc1OC         < 100 nM

Query block: For the compound shown here, COc1cc2nccc(Oc3ccc(NC(=O)c4nn(CC5CCCCC5)cc4OCC(F)(F)F)nc3)c2cc1OC , give the reported Kd.
Result block: < 100 nM

Query block: Param item = CCCn1cc(OCC(F)(F)F)c(C(=O)Nc2ccc(Oc3ccnc4cc(OC)c(OC)cc34)c(F)c2)n1 ; retrieve measured Kd.
Result block: < 100 nM
